Tested on: UO-31
Assay: Growth inhibition of human UO-31 cells at 10 uM incubated for 48 hrs by sulforhodamine B assay relative to control
Assay type: functional
Details: read-out: GI
measurement-name: inhibition of growth at 10 µM (%)

>>> measured_result("Cc1cc(C)n(CC(=O)Nc2ccc(-c3nc4ccccc4s3)cc2)n1")
16.2
>>> measured_result("O=C(CN1C(=O)C(=O)c2ccccc21)Nc1ccc(-c2nc3ccccc3s2)cc1")
15.5
>>> measured_result("O=C(Cn1c2ccccc2c2ccccc21)Nc1ccc(-c2nc3ccccc3s2)cc1")
12.8
>>> measured_result("NS(=O)(=O)c1ccc(NCC(=O)Nc2ccc(-c3nc4ccccc4s3)cc2)cc1")
25.6
>>> measured_result("O=C(Cn1cnc2ccccc21)Nc1ccc(-c2nc3ccccc3s2)cc1")
35.4
>>> measured_result("O=C(CNc1ccccc1)Nc1ccc(-c2nc3ccccc3s2)cc1")
30.2
>>> measured_result("O=C(CNCc1ccccc1)Nc1ccc(-c2nc3ccccc3s2)cc1")
20.5
>>> measured_result("O=C(CNC1CCCCC1)Nc1ccc(-c2nc3ccccc3s2)cc1")
43.5

Just for reference, ChEMBL document CHEMBL4765227 is where these values come from.
